Sourced from patent US9579384B2

test: Measured solubility of bendamustine HCl in the diluent/solubilizer combination at room temperature; format: physicochemical; conditions: half normal saline/dextrose diluent/solubilizer combination, aqueous with cosolvent or surfactant or cyclodextrin, 50 ml half normal saline/dextrose + 1 ml of 25 mg/ml bendamustine HCl and solubilizers (PG, PEG 400)
Structures can show the parent of a compound that is named as a salt.
measurement_name: solubility (mg/mL)
Your answer is read as mg/mL, so omit the unit and give the number.

Exercise: Which measured solubility value corresponds to Cn1c(CCCC(=O)O)nc2cc(N(CCCl)CCCl)ccc21 [bendamustine HCl, Bendamustine HCl] ?
Key: 14.2

###

test: Measured solubility of bendamustine HCl in the diluent/solubilizer combination at room temperature; type: physicochemical; conditions: normal saline diluent/solubilizer combination, aqueous with cosolvent or surfactant or cyclodextrin, 50 ml normal saline + 1 ml of 25 mg/ml bendamustine HCl and solubilizers (PG, PEG 400)
Structures can show the parent of a compound that is named as a salt.
measurement_name: solubility (mg/mL)
Your answer is read as mg/mL, so omit the unit and give the number.

Exercise: Which measured solubility value corresponds to Cn1c(CCCC(=O)O)nc2cc(N(CCCl)CCCl)ccc21 [bendamustine HCl, Bendamustine HCl] ?
Key: 10.5
